MIC90 by entry:
system: Candida albicans; experiment: Antifungal activity against Candida albicans assessed as growth inhibition incubated for 72 hrs at 37 degC by broth dilution method; assay type: functional
Give a bare numeral; the unit µg/mL is implied.

> print(dat)
                         compound.structure  parameter.measured  recorded.measurement
1        OC(Cn1cncn1)(Cn1cncn1)c1ccc(F)cc1F               MIC90                    50
2  C/C(=N\Nc1ccc(Cl)cc1)c1cc2c(C)cc(=O)oc2c(/C(C)=N/Nc2ccc(Cl)cc2)c1O               MIC90                    50
3  COc1ccc(-n2cc(C=O)c(-c3cc4c(C)cc(=O)oc4c(-c4nn(-c5ccc(OC)cc5)cc4C=O)c3O)n2)cc1               MIC90                    50

Now consider a different compound.
Query :: # query: MIC90 of entry Cc1cc(=O)oc2c(-c3nn(-c4ccc(Cl)cc4)cc3C=O)c(O)c(-c3nn(-c4ccc(Cl)cc4)cc3C=O)cc12
Result :: 100

----------
experiment: Antioxidant activity assessed as DPPH free radical scavenging activity at 50 ug/ml after 20 mins by UV-vis spectrophotometry analysis; format: physicochemical
inhibition (INH) by entry:
Give a bare numeral; the unit % is implied.

> print(dat)
                         compound.structure  recorded.measurement
1  Cc1cccc(-n2cc(C=O)c(-c3cc4c(C)cc(=O)oc4c(-c4nn(-c5cccc(C)c5)cc4C=O)c3O)n2)c1                  16.4
2           O=C1O[C@H]([C@@H](O)CO)C(O)=C1O                 16.87
3  C/C(=N\Nc1cccc(C)c1)c1cc2c(C)cc(=O)oc2c(/C(C)=N/Nc2cccc(C)c2)c1O                  11.8
4  Cc1ccc(-n2cc(C=O)c(-c3cc4c(C)cc(=O)oc4c(-c4nn(-c5ccc(C)cc5)cc4C=O)c3O)n2)cc1                 17.28
5  C/C(=N\Nc1ccc(Cl)cc1)c1cc2c(C)cc(=O)oc2c(/C(C)=N/Nc2ccc(Cl)cc2)c1O                 14.75

Query :: # query: inhibition (INH) of entry COc1ccc(-n2cc(C=O)c(-c3cc4c(C)cc(=O)oc4c(-c4nn(-c5ccc(OC)cc5)cc4C=O)c3O)n2)cc1
Result :: 17.87

Query :: Please give the result for C/C(=N\Nc1ccccc1)c1cc2c(C)cc(=O)oc2c(/C(C)=N/Nc2ccccc2)c1O too.
Result :: 16.96

Query :: Please give the result for C/C(=N\Nc1ccc(C)cc1)c1cc2c(C)cc(=O)oc2c(/C(C)=N/Nc2ccc(C)cc2)c1O too.
Result :: 16.65

----------
experiment: Antioxidant activity assessed as hydroxyl radical scavenging activity at 100 ug/ml after 60 mins; assay type: physicochemical; conditions: 1 h
inhibition (INH) by entry:
Entry format: amount then unit.

Previously resolved entries follow.
> print(dat)
                                   compound  parameter.measured  recorded.measurement
1  COc1ccc(-n2cc(C=O)c(-c3cc4c(C)cc(=O)oc4c(-c4nn(-c5ccc(OC)cc5)cc4C=O)c3O)n2)cc1    inhibition (INH)                35.13%
2  C/C(=N\Nc1ccc(F)cc1)c1cc2c(C)cc(=O)oc2c(/C(C)=N/Nc2ccc(F)cc2)c1O    inhibition (INH)                 26.6%
3  C/C(=N\Nc1cccc(C)c1)c1cc2c(C)cc(=O)oc2c(/C(C)=N/Nc2cccc(C)c2)c1O    inhibition (INH)                30.78%
4  C/C(=N\Nc1ccc(Cl)cc1)c1cc2c(C)cc(=O)oc2c(/C(C)=N/Nc2ccc(Cl)cc2)c1O    inhibition (INH)                30.75%
5  Cc1cc(=O)oc2c(-c3nn(-c4ccccc4)cc3C=O)c(O)c(-c3nn(-c4ccccc4)cc3C=O)cc12    inhibition (INH)                30.04%

Query :: # query: inhibition (INH) of entry Cc1ccc(-n2cc(C=O)c(-c3cc4c(C)cc(=O)oc4c(-c4nn(-c5ccc(C)cc5)cc4C=O)c3O)n2)cc1
Result :: 31.48%

Query :: Please give the result for Cc1cccc(-n2cc(C=O)c(-c3cc4c(C)cc(=O)oc4c(-c4nn(-c5cccc(C)c5)cc4C=O)c3O)n2)c1 too.
Result :: 30.1%

Query :: Please give the result for C/C(=N\Nc1ccccc1)c1cc2c(C)cc(=O)oc2c(/C(C)=N/Nc2ccccc2)c1O too.
Result :: 29.65%

Query :: Please give the result for COc1ccc(N/N=C(\C)c2cc3c(C)cc(=O)oc3c(/C(C)=N/Nc3ccc(OC)cc3)c2O)cc1 too.
Result :: 33.01%

Query :: Please give the result for Cc1cc(=O)oc2c(-c3nn(-c4ccc(Cl)cc4)cc3C=O)c(O)c(-c3nn(-c4ccc(Cl)cc4)cc3C=O)cc12 too.
Result :: 32.07%
